molecular target: T1, human programmed cell death protein 1 (hPD-1) C93S (aa 24-167) (Homo sapiens, UniProt Q15116, C93S); assay: SPR; Carterra LSA; Fab from the ammonium sulfate precipitate of the culture supernatant immobilised on a NiHC200M chip; hPD-1 (1-1024 nM) or mPD-1-Fc (4-1024 nM) as analyte, fourfold dilution series, no regeneration; HBS-EP pH 7.4, 25 °C; medians over the spots of a construct, KD = koff/kon; conditions: one partner purified
T1 construct: made as a fusion with a TEV site and human Fc; the Fc was cut off with TEV protease; source: Expi293F, purified (Protein A, TEV cleavage of Fc, SEC; monomer fractions); not shown: Fc (human), C-terminal, cleaved
T1 sequence (Q15116 24-167 C93S): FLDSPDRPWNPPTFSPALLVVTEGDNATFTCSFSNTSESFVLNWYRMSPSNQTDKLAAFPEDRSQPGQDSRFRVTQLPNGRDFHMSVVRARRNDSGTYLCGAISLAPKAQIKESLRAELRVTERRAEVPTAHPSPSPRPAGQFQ
Consider the cut-off 20000 M⁻¹ s⁻¹. If the recorded kon is strictly smaller, the label is True; if not, the label is False.

These recorded examples may help you get a feel for the data.
binder: toripalimab Fab L.V99M (Fab, V domains shown, as the heavy chain of Sm3; light chain of Sm3 with this change; numbers count from the chain's first residue; source: Brevibacillus, culture supernatant (ammonium sulfate precipitate); not shown: 6xHis, C-terminal, kept; 6xHN, C-terminal, kept) VH: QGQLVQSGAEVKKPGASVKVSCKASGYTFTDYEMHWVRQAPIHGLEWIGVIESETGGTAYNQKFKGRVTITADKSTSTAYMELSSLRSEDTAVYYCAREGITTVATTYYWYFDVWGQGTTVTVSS VL: DVVMTQSPLSLPVTLGQPASISCRSSQSIVHSNGNTYLEWYLQKPGQSPQLLIYKVSNRFSGVPDRFSGSGSGTDFTLKISRVEAEDVGVYYCFQGSHMPLTFGQGTKLEIK
discrete_label: False

binder: toripalimab Fab L.F60Y (Fab, V domains shown, as the heavy chain of Sm3; light chain of Sm3 with this change; numbers count from the chain's first residue; source: Brevibacillus, culture supernatant (ammonium sulfate precipitate); not shown: 6xHis, C-terminal, kept; 6xHN, C-terminal, kept) VH: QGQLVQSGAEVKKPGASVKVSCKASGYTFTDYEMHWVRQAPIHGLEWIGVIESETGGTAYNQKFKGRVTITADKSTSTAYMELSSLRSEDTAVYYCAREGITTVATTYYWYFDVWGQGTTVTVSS VL: DVVMTQSPLSLPVTLGQPASISCRSSQSIVHSNGNTYLEWYLQKPGQSPQLLIYKVSNRYSGVPDRFSGSGSGTDFTLKISRVEAEDVGVYYCFQGSHVPLTFGQGTKLEIK
discrete_label: True

binder: toripalimab Fab L.P100E (Fab, V domains shown, as the heavy chain of Sm3; light chain of Sm3 with this change; numbers count from the chain's first residue; source: Brevibacillus, culture supernatant (ammonium sulfate precipitate); not shown: 6xHis, C-terminal, kept; 6xHN, C-terminal, kept) VH: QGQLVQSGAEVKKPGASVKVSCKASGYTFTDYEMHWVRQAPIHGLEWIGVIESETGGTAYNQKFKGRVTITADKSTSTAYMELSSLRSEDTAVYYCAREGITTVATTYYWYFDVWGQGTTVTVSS VL: DVVMTQSPLSLPVTLGQPASISCRSSQSIVHSNGNTYLEWYLQKPGQSPQLLIYKVSNRFSGVPDRFSGSGSGTDFTLKISRVEAEDVGVYYCFQGSHVELTFGQGTKLEIK
discrete_label: True

binder: toripalimab Fab L.P100S (Fab, V domains shown, as the heavy chain of Sm3; light chain of Sm3 with this change; numbers count from the chain's first residue; source: Brevibacillus, culture supernatant (ammonium sulfate precipitate); not shown: 6xHis, C-terminal, kept; 6xHN, C-terminal, kept) VH: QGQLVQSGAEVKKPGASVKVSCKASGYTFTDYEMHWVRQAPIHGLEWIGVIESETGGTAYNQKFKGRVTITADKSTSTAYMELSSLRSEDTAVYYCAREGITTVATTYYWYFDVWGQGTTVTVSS VL: DVVMTQSPLSLPVTLGQPASISCRSSQSIVHSNGNTYLEWYLQKPGQSPQLLIYKVSNRFSGVPDRFSGSGSGTDFTLKISRVEAEDVGVYYCFQGSHVSLTFGQGTKLEIK
discrete_label: True

Field: next binder
Ask | Is kon of toripalimab Fab H.Y108A (Fab, V domains shown, heavy chain of Sm3 with this change; numbers count from the chain's first residue; as the light chain of Sm3; source: Brevibacillus, culture supernatant (ammonium sulfate precipitate); not shown: 6xHis, C-terminal, kept; 6xHN, C-terminal, kept) VH: QGQLVQSGAEVKKPGASVKVSCKASGYTFTDYEMHWVRQAPIHGLEWIGVIESETGGTAYNQKFKGRVTITADKSTSTAYMELSSLRSEDTAVYYCAREGITTVATTAYWYFDVWGQGTTVTVSS VL: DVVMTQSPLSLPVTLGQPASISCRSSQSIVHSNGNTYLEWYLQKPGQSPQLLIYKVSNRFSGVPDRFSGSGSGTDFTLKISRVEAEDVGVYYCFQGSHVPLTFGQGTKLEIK strictly below 20000 M⁻¹ s⁻¹?
Reply | True
